The reported measurements were obtained from the RepoRT retention time repository (doi:10.1016/j.foodchem.2021.129757).

assay: RP, Merck LiChrospher RP-18, 250 × 4 mm, 5 µm, 35 °C, 0.3 mL/min, estimated dead time 6.7 min; A: water + 0.5% formic acid; B: acetonitrile + 0.5% formic acid; gradient (min/%B) 0/5 10/5 30/15 45/20 65/20 95/54 110/63 115/5 135/5; settings: stereoisomer not certain
measured.parameter: LC retention time (min)

// query LC retention time value for entry O=C(CCc1ccc(O)cc1)c1c(O)cc(O)cc1OC1OC(CO)C(O)C(O)C1O (stereo unspecified)
81.1

// query LC retention time value for entry COc1cc(-c2oc3cc(O)cc(O)c3c(=O)c2OC2OC(CO)C(O)C(O)C2O)ccc1O (stereo unspecified) [Isorhamnetin-3-O-glucoside]
78.5

// query LC retention time value for entry O=C(O)c1ccc(O)c(O)c1
29.7

// query LC retention time value for entry O=C(O)C=Cc1ccc(O)cc1
56.2

// query LC retention time value for entry O=C(O)c1ccccc1O
81.6

a = Oc1ccc(-c2[o+]c3cc(O)cc(O)c3cc2O)cc1
b = O=c1cc(-c2ccc(O)c(O)c2)oc2cc(O)cc(O)c12
So which one has the bigger LC retention time here, a or b ? Pick one; state its label.
b
(b: 91.1 min, a: 42 min)

1 = OCC1OC(Oc2cc3c(O)cc(O)cc3[o+]c2-c2ccc(O)c(O)c2)C(O)C(O)C1O (stereo unspecified) [Cyanidin 3-O-glucoside]
2 = CC=C1C(OC2OC(CO)C(O)C(O)C2O)OC=C(C(=O)OC)C1CC(=O)OCCc1ccc(O)c(O)c1 (stereo unspecified)
So which one has the bigger LC retention time here, 1 or 2 ? Pick one; state its label.
2

====

assay: RP, Waters ACQUITY UPLC BEH Shield RP18, 150 × 2.1 mm, 1.7 µm, 40 °C, 0.4 mL/min, estimated dead time 0.83 min; A: water + 0.1% formic acid, pH 3; B: acetonitrile + 0.1% formic acid, pH 3; gradient (min/%B) 0/0 30/50 31/100 37/100 37.1/0; settings: stereoisomer not certain
measured.parameter: LC retention time (min)

Below: 10 compounds and their reported LC retention time.
// query LC retention time value for entry CC1=C2C(=O)C=C(CO)C2C2OC(=O)C(C)C2C(O)C1 (centres undefined) [Dihydrolactucin]
10.5

// query LC retention time value for entry CC1CCC2(C(=O)O)CCC3(C)C(=CCC4C5(C)CCC(O)C(C)(C)C5CCC43C)C2C1C (centres undefined)
34.2

// query LC retention time value for entry C[n+]1cccc(C(=O)[O-])c1
1.03

// query LC retention time value for entry O=c1c(O)c(-c2ccc(O)c(O)c2)oc2cc(O)cc(O)c12
20.4

// query LC retention time value for entry C=C1C(=O)OC2C3C(CO)=CC(=O)C3=C(C)CC(O)C12 (centres undefined)
11.2

// query LC retention time value for entry O=c1c(O)c(-c2ccccc2)oc2cc(O)cc(O)c12
29.4

// query LC retention time value for entry O=c1c(O)c(-c2ccc(O)cc2)oc2cc(O)cc(O)c12
24.5

// query LC retention time value for entry OCCc1ccc(O)c(O)c1 [Hydroxytyrosol]
3.26

// query LC retention time value for entry O=c1c(OS(=O)(=O)O)c(-c2ccc(O)c(O)c2)oc2cc(O)cc(O)c12 [Quercetin 3-O-sulfate]
25.5

// query LC retention time value for entry COc1cc(C=CC(=O)CC(=O)C=Cc2ccc(O)c(OC)c2)ccc1O
13

1 = O=C(O)c1ccc(O)c(O)c1
2 = CC1=C2C(=O)C=C(COC(=O)C(=O)O)C2C2OC(=O)C(C)C2CC1 (centres undefined) [Dihydro-8-deoxylactucin-15-oxalate]
3 = O=C(O)c1cc(O)c(O)c(O)c1
Rank the items in ascending order with respect to LC retention time. Write the labels out in the order the request specifies.
3, 1, 2
(3: 2.41 min, 1: 4.01 min, 2: 14.9 min)

A = Oc1ccccc1O
B = O=C1CC(c2ccc(O)cc2)Oc2cc(O)cc(O)c21 (centres undefined)
So which one has the bigger LC retention time here, A or B ? Pick one; state its label.
B
(B: 21.1 min, A: 4.35 min)

a = CC1OC(OC2C(Oc3cc(O)c4c(c3)OC(c3ccc(O)cc3)CC4=O)OC(CO)C(O)C2O)C(O)C(O)C1O (centres undefined)
b = O=C(O)CCc1ccc(O)c(O)c1 [Dihydrocaffeic acid]
Which record shows the lower LC retention time: the first, a , or the second, b ? Pick one; state its label.
b

====

experiment: RP, Waters ACQUITY UPLC HSS T3, 100 × 2.1 mm, 1.8 µm, 30 °C, 0.4 mL/min, estimated dead time 0.55 min; A: water + 0.1% formic acid, pH 3; B: acetonitrile + 0.1% formic acid, pH 3; gradient (min/%B) 0/0 2/0 15/100 22/100 22.1/0 26/0; conditions: stereoisomer not certain
measured.parameter: LC retention time (min)

// query LC retention time value for entry O=C(C=Cc1ccc(O)c(O)c1)OC1CC(O)(C(=O)O)CC(O)C1O (stereo not given) [Chlorogenic acid]
8.02

// query LC retention time value for entry COc1ccc(-c2cc(=O)c3c(OC)c(OC)c(OC)c(OC)c3o2)cc1 [Tangeretin]
13.7

// query LC retention time value for entry O=c1ccc2c(O)c3ccoc3cc2o1 [Bergaptol]
11

// query LC retention time value for entry COc1cc(O)c2c(=O)c(O)c(-c3ccc(O)c(O)c3)oc2c1 [Rhamnetin]
12.5

// query LC retention time value for entry COc1cc(C=O)ccc1O [Vanillin]
9.32

a = O=Cc1ccc[nH]1 [1H-pyrrole-2-carboaldehyde]
b = O=c1oc2cc(O)ccc2c2ccccc12 [Urolithin B]
Which record shows the lower LC retention time: the first, a , or the second, b ? Pick one; state its label.
a

1 = O=C(O)CNC(=O)c1ccccc1 [Hippuric acid]
2 = COc1c2ccoc2cc2oc(=O)ccc12 [Bergapten]
Which record shows the lower LC retention time: the first, 1 , or the second, 2 ? Pick one; state its label.
1

====

assay: RP, Waters ACQUITY UPLC BEH Shield RP18, 100 × 2.1 mm, 1.7 µm, 30 °C, 0.6 mL/min, estimated dead time 0.37 min; A: water + 0.1% formic acid, pH 3; B: acetonitrile + 0.1% formic acid, pH 3; gradient (min/%B) 0/0 2/0 7/10 22/95 22.1/0 26/0; details: stereoisomer not certain
measured.parameter: LC retention time (min)

// query LC retention time value for entry O=C(O)C1OC(Oc2c(-c3ccc(O)cc3)oc3cc(O)cc(O)c3c2=O)C(O)C(O)C1O (centres undefined) [Kaempferol-3-O-glucuronide]
13.7

// query LC retention time value for entry O=C(C=Cc1ccc(O)c(O)c1)OC1CC(O)(C(=O)O)CC(O)C1O (centres undefined)
11

// query LC retention time value for entry O=c1c(O)c(-c2ccc(O)cc2)oc2cc(O)cc(O)c12
16.6

// query LC retention time value for entry O=c1cc(-c2ccc(O)c(O)c2)oc2cc(O)cc(O)c12
15.3

// query LC retention time value for entry O=C(O)CNC(=O)c1ccccc1
6.13

// query LC retention time value for entry C[n+]1cccc(C(=O)[O-])c1
0.62

P = COc1cc(C=O)ccc1O
Q = C[N+]1(C)CCCC1C(=O)[O-] (centres undefined) [Stachydrine]
Which record shows the lower LC retention time: the first, P , or the second, Q ? Pick one; state its label.
Q

a = CC1OC(OC2C(Oc3cc(O)c4c(c3)OC(c3ccc(O)cc3)CC4=O)OC(CO)C(O)C2O)C(O)C(O)C1O (centres undefined)
b = OC1C(O)C(O)C(O)C(O)C1O (centres undefined)
c = O=c1c(O)c(-c2ccc(OS(=O)(=O)O)c(O)c2)oc2cc(O)cc(O)c12 [Quercetin 4-O-sulfate]
Rank entries according to their LC retention time, from the largest number down. Write the labels out in the order the request specifies.
c, a, b
(c: 19.5 min, a: 13 min, b: 0.58 min)

P = Oc1cc(O)c2c(c1)OC1(c3ccc(O)c(O)c3)Oc3cc(O)c4c(c3C2C1O)OC(c1ccc(O)c(O)c1)C(O)C4 (centres undefined)
Q = O=C(O)CCc1ccc(O)c(O)c1 [Dihydrocaffeic acid]
Which record shows the lower LC retention time: the first, P , or the second, Q ? Pick one; state its label.
Q
(Q: 8.08 min, P: 13.1 min)

====

test: RP, Agilent ZORBAX Eclipse XDB-C18, 100 × 2.1 mm, 1.8 µm, 50 °C, 0.4 mL/min, estimated dead time 0.55 min; A: water + 0.1% formic acid, pH 3; B: methanol + 0.1% formic acid, pH 3; gradient (min/%B) 0/2 10/100 14.5/100 14.51/2 16.5/2; conditions: stereoisomer not certain
measured.parameter: LC retention time (min)

Below: 4 molecules and their reported LC retention time.
// query LC retention time value for entry O=C(CCc1ccc(O)cc1)c1c(O)cc(O)cc1O
6.47

// query LC retention time value for entry O=S(=O)(O)Oc1c(O)cccc1O [Pyrogallol 2-O-sulfate]
1.76

// query LC retention time value for entry O=C(O)Cc1cc(O)cc(O)c1 [3,5-Dihydroxyphenylacetic acid]
2.21

// query LC retention time value for entry Nc1ccc(C(=O)O)cc1
2.08

A = Oc1cc(O)c2cc(O)c(-c3ccc(O)c(O)c3)[o+]c2c1
B = Cc1ncc(CO)c(C=O)c1O
Which record shows the lower LC retention time: the first, A , or the second, B ? Pick one; state its label.
B

a = O=C(O)c1cccc(O)c1O [2,3-Dihydroxybenzoic acid]
b = O=C(O)CCCCCCCC(=O)O
Which record shows the lower LC retention time: the first, a , or the second, b ? Pick one; state its label.
a
